Experiment Description: Phase 1 study (NCT04249843): plasma pharmacokinetics of Compound A
Assay type: in vivo, human
Protocol Conditions: human, plasma, oral; 5 mg QD, C2D1, median (min, max)
Experimental Readout: Tmax (h)
// return numeric value only (unit: h, not printed)

Asked: Tell us which Tmax value is on record for O=C1CCc2c(Oc3ccc4c(c3)[C@H]3[C@H](NC(=O)Nc5cc(F)c(F)cc5F)[C@H]3O4)ccnc2N1
Given back: 1

---

Experiment Description: Phase 1 study (NCT04249843): plasma pharmacokinetics of Compound A
Type: in vivo, human
Protocol Conditions: human, plasma, oral, 25 mg, 25 mg QD, C2D1, Mean (%CV)
Experimental Readout: Cmax (ng/mL)
// return numeric value only (unit: ng/mL, not printed)

Asked: Tell us which Cmax value is on record for O=C1CCc2c(Oc3ccc4c(c3)[C@H]3[C@H](NC(=O)Nc5cc(F)c(F)cc5F)[C@H]3O4)ccnc2N1 [Compound A]
Given back: 2110

From: patent US20250090507A1
